biological target: Histamine H2 receptor (Cavia porcellus); test: Antagonistic activity against H2 receptor in guinea pig.; format: functional; settings: read-out: pA2 (converted)
Sequence (P47747 whole entry): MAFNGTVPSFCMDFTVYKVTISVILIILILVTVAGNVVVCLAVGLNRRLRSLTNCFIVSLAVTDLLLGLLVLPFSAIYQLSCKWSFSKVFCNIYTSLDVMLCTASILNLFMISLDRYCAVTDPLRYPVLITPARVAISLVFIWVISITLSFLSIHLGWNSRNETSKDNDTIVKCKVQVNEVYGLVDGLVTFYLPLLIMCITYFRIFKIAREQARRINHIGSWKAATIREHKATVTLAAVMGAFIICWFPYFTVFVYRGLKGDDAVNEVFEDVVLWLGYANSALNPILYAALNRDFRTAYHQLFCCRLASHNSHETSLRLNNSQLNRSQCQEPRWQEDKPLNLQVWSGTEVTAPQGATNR
Grouping key: Kb. Bins: low (below 2 µM), intermediate (2 µM to below 20 µM), high (20 µM or more)

>  <Chemical string>
C/N=C(\N)NCCSCc1[nH]cnc1C

>  <Cat>
intermediate

$$$$
>  <Chemical string>
C/N=C(\N)NCCc1c[nH]cn1

>  <Cat>
high

$$$$
>  <Chemical string>
Cc1[nH]cnc1CSCC/N=C(\N)SCCCc1c[nH]cn1

>  <Cat>
intermediate

$$$$
>  <Chemical string>
Cc1nc[nH]c1CSCCNC(=S)NCCCc1cnc[nH]1

>  <Cat>
low

$$$$
>  <Chemical string>
Cc1[nH]cnc1CSCC/N=C(\NC#N)NCCCc1c[nH]cn1

>  <Cat>
low

$$$$

In plain terms, what class is Cc1[nH]cnc1CSCC/N=C(\N)NCCCCc1c[nH]cn1 ?
low

In plain terms, what class is C/N=C(\N)NCCCCc1c[nH]cn1 ?
high

In plain terms, what class is C/N=C(\N)NCCCc1c[nH]cn1 ?
intermediate

* * *

target: UniProtKB P47747; assay: Agonistic activity against histamine H2 receptor in guinea pig atrium (potency relative to histamine =1); assay type: functional, tissue-based; conditions: Cardiac atrium
Assay metric: Potency
I'd appreciate a reply containing only the number, no unit.

Which value of Potency has been reported for CC1=NN(c2ccc([N+](=O)[O-])cc2)C(=O)C1[N+](=O)[O-].Cc1[nH]cnc1CSCC/N=C(\N)NCCCc1cn(C)cn1 in the records?
0.007

Which value of Potency has been reported for C/N=C(\N)NCCCc1c[nH]cn1 in the records?
0.2

Which value of Potency has been reported for CC1=NN(c2ccc([N+](=O)[O-])cc2)C(=O)C1[N+](=O)[O-].N=C(NCCCc1c[nH]cn1)NCCCc1c[nH]cn1 in the records?
4.83

Which value of Potency has been reported for N=C(NCCCc1c[nH]cn1)NCCSCc1c[nH]cn1 in the records?
5.38

Which value of Potency has been reported for CC1=NN(c2ccc([N+](=O)[O-])cc2)C(=O)C1[N+](=O)[O-].Cc1[nH]cnc1CSCC/N=C(\N)NCCc1c[nH]cn1 in the records?
1.93

Which value of Potency has been reported for C/N=C(\N)NCCCCc1c[nH]cn1 in the records?
0.074

Which value of Potency has been reported for N=C(NCCCCc1c[nH]cn1)NCCCc1c[nH]cn1 in the records?
12.3

Which value of Potency has been reported for Cc1[nH]cnc1CSCCNC(=N)NCCCc1c[nH]cn1 in the records?
48.1

Which value of Potency has been reported for CSC(=N)NCCCc1c[nH]cn1 in the records?
0.1

Which value of Potency has been reported for N=C(NCCCc1c[nH]cn1)NCCSCc1nccs1 in the records?
24.4

Which value of Potency has been reported for Cc1[nH]cnc1CSCC/N=C(\N)NCCCCc1c[nH]cn1 in the records?
0.83

* * *

Catalogue of Max response readings, one per entry.
biological target: Histamine H2 receptor (Cavia porcellus) (UniProt P47747); assay: Percent maximum response against histamine H2 receptor in guinea pig atrium was evaluated; format: tissue-based; settings: Cardiac atrium
Numbers only; they are read as %.

>  <Chemical string>
CSC(=N)NCCCc1c[nH]cn1

>  <Max response / %>
23

$$$$
>  <Chemical string>
CC1=NN(c2ccc([N+](=O)[O-])cc2)C(=O)C1[N+](=O)[O-].Cc1[nH]cnc1CSCC/N=C(\N)NCCc1c[nH]cn1

>  <Max response / %>
100

$$$$
>  <Chemical string>
N=C(NCCCc1c[nH]cn1)NCCSCc1nccs1

>  <Max response / %>
91

$$$$
>  <Chemical string>
C/N=C(\N)NCCCc1c[nH]cn1

>  <Max response / %>
62

$$$$
>  <Chemical string>
N=C(NCCCc1c[nH]cn1)NCCSCc1c[nH]cn1

>  <Max response / %>
95

$$$$

Read the next record carefully.
Which value of Max response has been reported for CC1=NN(c2ccc([N+](=O)[O-])cc2)C(=O)C1[N+](=O)[O-].Cc1[nH]cnc1CSCC/N=C(\N)NCCCc1cn(C)cn1 in the records?
11
